- Condition: 298.15 K; 101.3 kPa; Liquid
Measurement Label: mass density (kg/m3)
Quick note: give the figure in kg/m3, leave out the unit.

[ask] Consider the compound C=C(C)C(=O)OC [methyl methacrylate] and give its measured mass density.
[reply] 937.628

[ask] # query: mass density of entry C=CC(=O)OCCCC [butyl 2-propenoate]
[reply] 893.947

[ask] State the recorded mass density for this entry: C=CC(=O)OCC [ethyl propenoate]
[reply] 916.124

[ask] Any idea what its mass density is? The compound is CC(=O)OCCC(C)C [3-methylbutyl ethanoate]
[reply] 867.356

[ask] Look up mass density: C=Cc1ccccc1 [styrene]
[reply] 901.941
